All values here come from ChEMBL document CHEMBL1201862.

Target: Ataxin-2 (Homo sapiens) (UniProt Q99700)
Sequence (Q99700 whole entry): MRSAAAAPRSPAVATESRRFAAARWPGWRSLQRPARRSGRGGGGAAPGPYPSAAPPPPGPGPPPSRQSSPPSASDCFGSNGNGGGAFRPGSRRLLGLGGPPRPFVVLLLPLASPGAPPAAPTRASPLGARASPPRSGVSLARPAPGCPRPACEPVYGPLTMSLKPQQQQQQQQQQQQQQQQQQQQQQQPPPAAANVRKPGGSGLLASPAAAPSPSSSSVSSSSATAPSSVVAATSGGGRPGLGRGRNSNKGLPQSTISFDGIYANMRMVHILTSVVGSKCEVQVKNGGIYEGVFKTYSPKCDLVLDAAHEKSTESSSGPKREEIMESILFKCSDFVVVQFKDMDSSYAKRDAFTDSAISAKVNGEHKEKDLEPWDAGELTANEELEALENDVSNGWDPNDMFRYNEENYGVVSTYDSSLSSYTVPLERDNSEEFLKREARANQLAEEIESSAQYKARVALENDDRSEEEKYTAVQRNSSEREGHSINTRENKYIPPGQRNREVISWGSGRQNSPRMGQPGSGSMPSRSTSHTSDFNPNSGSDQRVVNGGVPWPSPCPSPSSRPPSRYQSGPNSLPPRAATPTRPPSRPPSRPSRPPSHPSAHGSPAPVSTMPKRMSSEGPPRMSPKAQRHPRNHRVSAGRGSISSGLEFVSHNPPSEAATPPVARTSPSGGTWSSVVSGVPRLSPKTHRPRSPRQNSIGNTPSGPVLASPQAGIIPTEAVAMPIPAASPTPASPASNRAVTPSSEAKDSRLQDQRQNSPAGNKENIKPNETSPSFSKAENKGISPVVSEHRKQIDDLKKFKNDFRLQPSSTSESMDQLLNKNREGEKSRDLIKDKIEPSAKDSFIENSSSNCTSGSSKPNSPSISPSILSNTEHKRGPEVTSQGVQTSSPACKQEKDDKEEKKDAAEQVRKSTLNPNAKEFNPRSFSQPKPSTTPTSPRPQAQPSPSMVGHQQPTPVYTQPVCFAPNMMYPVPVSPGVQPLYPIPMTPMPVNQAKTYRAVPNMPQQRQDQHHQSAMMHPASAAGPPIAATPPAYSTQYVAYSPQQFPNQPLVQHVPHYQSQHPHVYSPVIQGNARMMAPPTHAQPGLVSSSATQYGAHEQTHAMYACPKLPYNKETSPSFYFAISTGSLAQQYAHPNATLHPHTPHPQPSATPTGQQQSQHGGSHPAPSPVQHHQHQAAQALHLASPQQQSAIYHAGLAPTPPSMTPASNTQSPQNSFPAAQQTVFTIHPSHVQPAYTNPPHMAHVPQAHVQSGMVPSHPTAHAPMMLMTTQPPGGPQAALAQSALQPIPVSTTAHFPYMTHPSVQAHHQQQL
Assay: qHTS for Inhibitors of ATXN expression.
Type: functional
In all, about 400,000 compounds went through this assay and about 2,100 (0.53%) were called active. Another 14% or so got no clear call; they are omitted. No rule for the calls is given here. This is one part of a sample in which actives are shown more often than they occur.
Bench note: report the call from active, inactive

Below are worked cases with known answers.
compound: Cc1ccc(S(=O)(=O)N2CCOCC2)cc1NC(=O)COC(=O)CNC(=O)c1ccc(C(C)(C)C)cc1
assigned category: inactive
//
compound: COc1ccc(NC(=O)CSc2nnc(C)n2C2CC2)cc1S(=O)(=O)N1CCOCC1
assigned category: inactive
//
compound: Cc1cc(C)n(-c2ccc(C(=O)Nc3ccc(C)c(S(=O)(=O)N4CCOCC4)c3)cc2)n1
assigned category: active

Asked: # outcome recorded in this test, key = O=C(Nc1ccc(Cl)c(S(=O)(=O)N2CCOCC2)c1)c1ccc(OCC2CCCO2)cc1 (centres undefined)
Given back: active

Asked: # outcome recorded in this test, key = O=C(Nc1cccc(S(=O)(=O)N2CCCCC2)c1)c1ccc(OCC2CCCO2)cc1 (centres undefined)
Given back: inactive

Asked: # outcome recorded in this test, key = CCOc1ccc(-c2nc(O)c3c(-c4cccs4)csc3n2)cc1
Given back: inactive

Asked: # outcome recorded in this test, key = Nc1cccc(Oc2c(F)c(F)c(Oc3cccc(N)c3)c(F)c2F)c1
Given back: inactive

Asked: # outcome recorded in this test, key = Cc1cc(C(=O)Nc2ccc(Cl)c(S(=O)(=O)N3CCOCC3)c2)c2ccccc2n1
Given back: inactive

Asked: # outcome recorded in this test, key = Cc1ccc(NC(=O)C2CCC(C(C)(C)C)CC2)cc1S(=O)(=O)N1CCOCC1 (centres undefined)
Given back: active

----------
Biological target: Ataxin-2 (Homo sapiens)
Test: qHTS for Inhibitors of ATXN expression.
Assay type: functional
Among all 400,000 compounds or so, about 2,100 (0.53%) were called active. Another 14% or so got no clear call; they are omitted. No rule for the calls is given here. The sample as a whole holds a higher share of actives than the screen did.
Bench note: report the call from true (1) (active), false (0) (inactive)

compound: CCN(CC)c1ccc2cc(C(=O)NNC(=O)c3ccc(S(=O)(=O)N4CCCCC4)cc3)c(=O)oc2c1
assigned category: false (0)
//
compound: CN1CCN(c2ccc(Cl)cc2NC(=O)/C=C/c2ccc(F)cc2)CC1
assigned category: false (0)
//
compound: CC1CCN(CCN=C(S)Nc2ccc(Cl)cc2)CC1
assigned category: false (0)
//
compound: CC(C)Cn1c([N+](=O)[O-])nc2c1c(=O)[nH]c(=O)n2C
assigned category: true (1)
//
compound: Cn1c(=O)[nH]c(=O)c2c1nc(Br)n2Cc1ccc(Cl)cc1
assigned category: false (0)

Then this compound:
Asked: # outcome recorded in this test, key = C/N=C1\C(=O)c2ccccc2C(O)=C1N(C(C)=O)c1ccc(Br)cc1
Given back: true (1)

----------
Biological target: Ataxin-2 (Homo sapiens)
Experiment: qHTS for Inhibitors of ATXN expression.
Type: functional
Hit rate of the full screen: of about 400,000 compounds, about 2,100 (0.53%) were called active. Not shown: some 14% with an inconclusive outcome. This excerpt belongs to a sample that is enriched for actives.
measurement kind: Potency

compound: Cc1cc(N2CCOCC2)nc2ccc(NC(=O)CCC(=O)N3CCCC(C)C3)cc12 (stereo not given)
tested target: Ataxin-2 (Homo sapiens)
Potency: inactive
--
compound: O=C(COC(=O)C1CC(=O)N(Cc2ccccc2)C1)Nc1cccc([N+](=O)[O-])c1 (stereo not given)
tested target: Ataxin-2 (Homo sapiens)
Potency: inactive
--
compound: CC1CCCN(C(=S)SCC(=O)c2cc(Br)cc(Br)c2O)C1 (stereo not given)
tested target: Ataxin-2 (Homo sapiens)
Potency: inactive
--
compound: NC(Cc1ccc(Cl)cc1)c1csc(Nc2cc(Oc3ccccc3)ncn2)n1 (stereo not given)
tested target: Ataxin-2 (Homo sapiens)
Potency: 35.5 µM (active)
--
compound: CC(C)c1ccc(C2=CC(c3cccc(Cl)c3)n3ncnc3N2)cc1 (stereo not given)
tested target: Ataxin-2 (Homo sapiens)
Potency: inactive

Asked: Bench note: what Potency did CCOC(=O)c1c(NC(=O)c2ccc(S(=O)(=O)N3CCCC(C)C3)cc2)sc2c1CCN(C(C)C)C2 (stereo not given) show?
Given back: inactive

Asked: Bench note: what Potency did CC(C)CC(N)c1csc(Nc2cc(Oc3ccccc3)ncn2)n1 (stereo not given) show?
Given back: 39.8 µM (active)

Asked: Bench note: what Potency did CN(C(=O)c1cccc(NC(=O)Cc2ccc(NC(=O)C3CCCN(C(=O)CCc4ccccc4)C3)cc2)c1)C1CCCCC1 (stereo not given) show?
Given back: 17.8 µM (active)

Asked: Bench note: what Potency did Cc1cc2oc3cc(NCCC4CCCN4C)ccc3c(=O)c2cc1C (stereo not given) show?
Given back: inactive

Asked: Bench note: what Potency did O=c1c2ccccc2nc(/C=C/c2c[nH]c3ccccc23)n1CCO show?
Given back: inactive

----------
Target: Ataxin-2 (Homo sapiens)
Assay: qHTS for Inhibitors of ATXN expression.
Assay type: functional
About 2,100 (0.53%) of roughly 400,000 compounds were called active. Another 14% or so got no clear call; they are omitted. The rule behind the calls is not given here. The sample as a whole holds a higher share of actives than the screen did.
Bench note: report the call from active, inactive

Below are worked cases with known answers.
compound: Cc1ccc(-c2nc3sc(CCNC(=O)c4ccc(Br)o4)c(C)n3n2)cc1
tested target: Ataxin-2 (Homo sapiens)
assigned category: active

compound: Cc1cccc(Nc2nc(NCc3ccco3)c3ccccc3n2)c1
tested target: Ataxin-2 (Homo sapiens)
assigned category: active

compound: COc1ccc(OC)c(Nc2nc(-c3ccncc3)nc3ccccc23)c1
tested target: Ataxin-2 (Homo sapiens)
assigned category: inactive

compound: CCCc1cc(=O)oc2cc(O[C@@H]3O[C@H](CO)[C@@H](O)[C@H](O)[C@H]3O)ccc12
tested target: Ataxin-2 (Homo sapiens)
assigned category: inactive

Then this compound:
Asked: # outcome recorded in this test, key = CCN(CC)c1ccc2cc(C(N)=O)c(=N)oc2c1
Given back: inactive

----------
Target: Ataxin-2 (Homo sapiens) (UniProt Q99700)
Experiment: qHTS for Inhibitors of ATXN expression.
Assay type: functional
About 2,100 (0.53%) of roughly 400,000 compounds were called active. Not shown: some 14% with an inconclusive outcome. No rule for the calls is given here. The sample holds actives, similar compounds and a random draw of the others, so the mix is not that of the screen.
Bench note: report the call from YES = active, NO = inactive

Below are worked cases with known answers.
molecule: Cc1ccc(OCCn2cc(/C=N/NC(=O)c3ccncc3)c3ccccc32)cc1
assigned category: NO
//
molecule: Cc1ccc(NC(=O)CC2Nc3ccccc3NC2=O)cc1C (configuration not stated)
assigned category: NO
//
molecule: C=CCNC(=O)c1c(N)n(-c2cccc(S(N)(=O)=O)c2)c2nc3ccccc3nc12
assigned category: NO
//
molecule: CC(=O)c1ccc(-c2cnc3c(NC=O)cc(-c4ccccc4Oc4ccccc4)cn23)cc1
assigned category: NO
//
molecule: N#CCSc1ccc2nc(-c3ccccc3)cn2n1
assigned category: NO
//
molecule: CC1=CC(=Nc2c(C)n(C)n(-c3ccccc3)c2=O)C=C(C)C1=O
assigned category: YES
//
molecule: CCN(C(=O)COC(=O)c1cc(-c2ccc(C)o2)nc2ccccc12)C1CCS(=O)(=O)C1 (configuration not stated)
assigned category: NO
//
molecule: CN(C)c1ccccc1-c1cc(NC=O)c2ncc(-c3cccc(C(F)(F)F)c3)n2c1
assigned category: NO

Asked: # outcome recorded in this test, key = COc1cc2ccc(=O)oc2cc1O
Given back: NO

Asked: # outcome recorded in this test, key = CN(C)CCNC(=O)c1cccc(-c2cnc3c(NC=O)cc(-c4ccc(F)cc4)cn23)c1
Given back: YES

Asked: # outcome recorded in this test, key = COc1cc(/C=C/c2ccc3cccc(O)c3n2)ccc1O
Given back: NO

Asked: # outcome recorded in this test, key = COc1cc(/C=C/C=C2/CC/C(=C/C=C/c3ccc(O)c(OC)c3)C2=O)ccc1O
Given back: YES

Asked: # outcome recorded in this test, key = O=C(CC1C(=O)NC2CCCCC2N1C(=O)c1ccc([N+](=O)[O-])cc1)Nc1ccccc1 (configuration not stated)
Given back: NO

Asked: # outcome recorded in this test, key = COc1cc(/C=C/C(=O)OCC(=O)N2CCC(Cc3ccccc3)CC2)ccc1O
Given back: NO

Asked: # outcome recorded in this test, key = COc1ccc(C2=CC(c3ccc(OC)c(OC)c3)n3nnnc3N2)c(OC)c1 (configuration not stated)
Given back: NO

Asked: # outcome recorded in this test, key = CC1(C(=O)Nc2cccc3cccnc23)CCN1Cc1ccc(-c2ccccc2)o1 (configuration not stated)
Given back: YES

Asked: # outcome recorded in this test, key = CC(=O)c1ccccc1NC(=O)COC(=O)CN1C(=O)C2CCCCC2C1=O (configuration not stated)
Given back: NO
